measurement-protocol: Solubility of the compound in FaSSIF
Format: physicochemical
solubility by entry:
readout: solubility (µM)

>>> print(df.to_string())
                           smiles_structure  units_symbol  readout_value
0  CCC(=O)N1CC[C@H](Nc2ncnc3c2CN(c2cnc(OC)c(C(F)(F)F)c2)CC3)C1            µM           77.6
1  COc1cc(-c2cc3c(N[C@H]4CCN(C(=O)C5CCC5)C4)ncnc3s2)cnc1OC            µM           39.7
2  CCC(=O)N1CC[C@H](Nc2ncnc3sc(-c4cnc(OC)c(OC)c4)cc23)C1            µM            102
3  COc1cc(-c2cc3c(O[C@H]4CCN(C(=O)C5CCC5)C4)ncnc3s2)cnc1OC            µM           5.89

----------
target: Phosphatidylinositol 4,5-bisphosphate 3-kinase catalytic subunit alpha isoform (Mus musculus)
Sequence (P42337 whole entry, canonical isoform): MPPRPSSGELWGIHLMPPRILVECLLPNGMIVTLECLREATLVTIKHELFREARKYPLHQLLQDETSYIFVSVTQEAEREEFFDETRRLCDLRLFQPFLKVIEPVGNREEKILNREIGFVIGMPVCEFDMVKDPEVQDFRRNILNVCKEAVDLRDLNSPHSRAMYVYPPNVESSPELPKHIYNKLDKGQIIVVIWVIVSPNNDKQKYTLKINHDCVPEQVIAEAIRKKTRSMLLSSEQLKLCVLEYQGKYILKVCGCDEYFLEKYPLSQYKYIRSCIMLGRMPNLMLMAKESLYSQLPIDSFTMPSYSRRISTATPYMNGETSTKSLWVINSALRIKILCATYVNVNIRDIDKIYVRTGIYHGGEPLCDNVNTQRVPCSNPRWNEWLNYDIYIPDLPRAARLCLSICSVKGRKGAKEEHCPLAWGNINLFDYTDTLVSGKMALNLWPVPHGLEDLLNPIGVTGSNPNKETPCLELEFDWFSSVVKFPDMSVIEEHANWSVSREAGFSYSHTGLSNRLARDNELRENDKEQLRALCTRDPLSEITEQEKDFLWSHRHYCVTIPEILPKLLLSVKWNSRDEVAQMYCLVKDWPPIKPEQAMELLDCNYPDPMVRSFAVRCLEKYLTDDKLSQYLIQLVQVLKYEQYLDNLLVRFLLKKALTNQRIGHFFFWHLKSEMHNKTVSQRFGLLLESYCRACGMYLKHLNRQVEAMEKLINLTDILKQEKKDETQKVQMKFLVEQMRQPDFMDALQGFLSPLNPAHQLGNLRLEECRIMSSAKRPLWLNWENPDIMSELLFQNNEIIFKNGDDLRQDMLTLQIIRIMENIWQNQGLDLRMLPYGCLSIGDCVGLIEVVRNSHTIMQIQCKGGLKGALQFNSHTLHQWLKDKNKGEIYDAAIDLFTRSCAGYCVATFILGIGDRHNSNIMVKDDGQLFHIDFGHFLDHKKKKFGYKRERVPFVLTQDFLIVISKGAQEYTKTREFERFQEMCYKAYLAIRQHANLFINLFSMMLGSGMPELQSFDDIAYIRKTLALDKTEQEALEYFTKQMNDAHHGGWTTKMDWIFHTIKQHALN
measurement-protocol: Inhibition of PI3Kalpha in IGF-1 stimulated mouse C2C12 cells incubated for 10 mins by AlphaLISA assay
readout: IC50 (µM)

                           smiles_structure  readout_value
0  CCC(=O)N1CC[C@H](Nc2ncnc3c2CN(c2cnc(OC)c(C(F)(F)F)c2)CC3)C1           19.6
1  COc1cc(-c2cc3c(O[C@H]4CCN(C(=O)C5CCC5)C4)ncnc3s2)cnc1OC           28.3
2  CCC(=O)N1CC[C@H](Nc2ncnc3sc(-c4cnc(OC)c(OC)c4)cc23)C1           50.2
3  COc1cc(-c2cc3c(N[C@H]4CCN(C(=O)C5CCC5)C4)ncnc3s2)cnc1OC           20.8

----------
measurement-protocol: Clearance in ICR mouse at 3 mg/kg, iv measured upto 24 hrs by LC-MS/MS analysis
Assay type: ADME, organism-based
measurement-parameters: in vivo
readout: clearance (mL/min/kg)

In [3]: df
Out[3]:
                           smiles_structure  readout_value
0  CCC(=O)N1CC[C@H](Nc2ncnc3sc(-c4cnc(OC)c(OC)c4)cc23)C1           36.5

----------
measurement-protocol: Microsomal stability in mouse liver microsomes assessed as intrinsic clearance
Type: ADME, Microsome
measurement-parameters: read-out: CLH
readout: CLint scaled (mL/min/kg)

>>> df
                           smiles_structure  readout_value
0  COc1cc(-c2cc3c(O[C@H]4CCN(C(=O)C5CCC5)C4)ncnc3s2)cnc1OC           1070
1  COc1cc(-c2cc3c(N[C@H]4CCN(C(=O)C5CCC5)C4)ncnc3s2)cnc1OC            342
2  CCC(=O)N1CC[C@H](Nc2ncnc3sc(-c4cnc(OC)c(OC)c4)cc23)C1           60.3
3  CCC(=O)N1CC[C@H](Nc2ncnc3c2CN(c2cnc(OC)c(C(F)(F)F)c2)CC3)C1            355

----------
target: Phosphatidylinositol 4,5-bisphosphate 3-kinase catalytic subunit alpha isoform (Homo sapiens, UniProt P42336)
Sequence (P42336 whole entry, canonical isoform): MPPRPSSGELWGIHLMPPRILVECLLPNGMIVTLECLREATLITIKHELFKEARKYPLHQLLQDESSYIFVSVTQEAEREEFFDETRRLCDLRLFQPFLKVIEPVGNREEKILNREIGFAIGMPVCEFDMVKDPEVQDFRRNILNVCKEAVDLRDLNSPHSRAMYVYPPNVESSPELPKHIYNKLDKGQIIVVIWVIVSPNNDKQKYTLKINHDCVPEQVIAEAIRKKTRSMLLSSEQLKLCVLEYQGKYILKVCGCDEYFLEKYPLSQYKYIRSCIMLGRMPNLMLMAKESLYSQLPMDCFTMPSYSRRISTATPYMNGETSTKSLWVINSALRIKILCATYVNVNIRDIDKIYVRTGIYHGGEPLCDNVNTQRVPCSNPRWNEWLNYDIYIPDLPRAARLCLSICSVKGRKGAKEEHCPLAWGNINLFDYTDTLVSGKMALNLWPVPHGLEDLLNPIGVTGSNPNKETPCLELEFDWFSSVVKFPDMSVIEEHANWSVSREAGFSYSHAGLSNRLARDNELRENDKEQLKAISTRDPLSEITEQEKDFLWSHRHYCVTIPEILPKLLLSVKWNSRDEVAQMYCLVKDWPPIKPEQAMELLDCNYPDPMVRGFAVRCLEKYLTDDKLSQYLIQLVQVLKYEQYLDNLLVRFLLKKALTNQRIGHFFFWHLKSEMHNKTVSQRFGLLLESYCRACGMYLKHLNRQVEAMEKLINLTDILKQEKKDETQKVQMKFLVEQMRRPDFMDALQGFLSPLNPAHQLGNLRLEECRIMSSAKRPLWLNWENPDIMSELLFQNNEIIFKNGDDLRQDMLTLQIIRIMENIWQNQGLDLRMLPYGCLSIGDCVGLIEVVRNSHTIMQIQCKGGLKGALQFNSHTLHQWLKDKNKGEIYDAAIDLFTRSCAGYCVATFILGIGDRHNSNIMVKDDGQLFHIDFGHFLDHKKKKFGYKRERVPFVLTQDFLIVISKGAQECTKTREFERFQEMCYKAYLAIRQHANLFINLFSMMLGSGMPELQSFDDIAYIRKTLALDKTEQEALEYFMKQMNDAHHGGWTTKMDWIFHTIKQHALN
measurement-protocol: Inhibition of PI3Kalpha (unknown origin) using PIP2 as substrate measured after 1 hr in presence of ATP by ADP-glo luminescence assay
readout: IC50 (µM)

>>> print(df.to_string())
                           smiles_structure  readout  units_symbol  reading_qualifier  readout_value
0  CCC(=O)N1CC[C@H](Nc2ncnc3sc(-c4cnc(OC)c(C#N)c4)cc23)C1     IC50            µM                  =           4.03
1  CCC(=O)N1CC[C@H](Oc2ncnc3sc(-c4cnc(OC)c(C#N)c4)cc23)C1     IC50            µM                  =           7.33
2  CCC(=O)N1CC[C@H](Oc2ncnc3sc(-c4cnc(OC)c(C(F)(F)F)c4)cc23)C1     IC50            µM                  >             10
3  CCC(=O)N1CC[C@H](Nc2ncnc3sc(-c4cnc(OC)c(F)c4)cc23)C1     IC50            µM                  =           3.41
4  CCC(=O)N1CC[C@H](Nc2ncnc3sc(-c4cnc(OC)c(C)c4)cc23)C1     IC50            µM                  =           6.29
